target: UniProtKB J9SQF3; experiment: TRPM3 ion channel driven Ca2+ uptake, Fluo-4 AM assay in overexpressing flip-in HEK293 cells; details: inhibition of Ca2+ influx stimulated with Pregnenolone sulfate (PS) 50 μM
pIC50: −log10 of the molar value.
OBSERVED PROPERTY: pIC50

See these solved cases before continuing.
[
  {
    "MOLECULE": "Cc1oc2ccc(OCc3cccnc3O)cc2c1C1=NC(CO)(CO)CO1 [Cpd 018]",
    "OBSERVED PROPERTY": "pIC50",
    "OBSERVED VALUE": "4.70 to 6.00"
  },
  {
    "MOLECULE": "Cc1ncsc1COc1ccc2oc(C)c(C3(C(=O)NCCO)CC3)c2c1 [Cpd 020]",
    "OBSERVED PROPERTY": "pIC50",
    "OBSERVED VALUE": "4.70 to 6.00"
  }
]

Entry Cc1oc2ccc(OCc3ccccc3)cc2c1-c1cncc(CC(F)(F)F)n1 [Cpd 029] : pIC50 on UniProtKB J9SQF3 = < 4.70

Entry Cc1oc2ccc(OCc3cccnc3C(F)(F)F)cc2c1C1(NC(=O)C(C)(C)O)CC1 [Cpd 009] : pIC50 on UniProtKB J9SQF3 = > 6.00

----------
Catalogue of pIC50 values
target: mouse TRPM3α2 (mTRPM3) ion channel (Mus musculus); test: TRPM3 ion channel driven Ca2+ uptake, Fluo-4 AM assay in overexpressing flip-in HEK293 cells; conditions: inhibition of Ca2+ influx stimulated with Pregnenolone sulfate (PS) 50 μM
pIC50: −log10 of the molar value.

[
  {
    "STRUCTURE NOTATION": "Cc1oc2ccc(OCc3ccccc3)cc2c1C1(C#N)CC1",
    "OBSERVED VALUE": "4.70 to 6.00"
  }
]

pIC50 recorded for this compound, `Cc1ncsc1COc1ccc2oc(C)c(C3(N)CC3)c2c1` , is < 4.70

pIC50 recorded for this compound, `Cc1ncsc1COc1ccc2oc(C)c(C3(C(N)=O)CC3)c2c1` , is 4.70 to 6.00

pIC50 recorded for this compound, `Cc1oc2ccc(OCc3cccnc3C(F)(F)F)cc2c1C1(NC(=O)CO)CC1` , is > 6.00

pIC50 recorded for this compound, `Cc1oc2ccc(OCc3ccccn3)cc2c1C1(N)CC1` , is 4.70 to 6.00

pIC50 recorded for this compound, `Cc1oc2ccc(OCc3cccnc3C(F)(F)F)cc2c1C1(NS(C)(=O)=O)CC1` , is > 6.00

pIC50 recorded for this compound, `Cc1ncsc1COc1ccc2oc(C)c(C3(CO)CC3)c2c1` , is > 6.00

pIC50 recorded for this compound, `Cc1noc(-c2c(C)oc3ccc(OCc4c(F)cccc4Cl)cc23)n1` , is < 4.70

pIC50 recorded for this compound, `COCC(=O)NC1(c2c(C)oc3ccc(OCc4cccnc4C(F)(F)F)cc23)CC1` , is > 6.00

pIC50 recorded for this compound, `Cc1oc2ccc(OCc3ccccc3)cc2c1C1(CO)CC1` , is 4.70 to 6.00

----------
target: mouse TRPM3α2 (mTRPM3) ion channel (Mus musculus, UniProt J9SQF3); construct: expressed in transfected cells; host or cells: flip-in HEK293; assay: TRPM3 ion channel driven Ca2+ uptake, Fluo-4 AM assay in overexpressing flip-in HEK293 cells; assay type: cell-based; conditions: inhibition of Ca2+ influx stimulated with Pregnenolone sulfate (PS) 50 μM
Sequence (J9SQF3 1-1709 isoform J9SQF3-12): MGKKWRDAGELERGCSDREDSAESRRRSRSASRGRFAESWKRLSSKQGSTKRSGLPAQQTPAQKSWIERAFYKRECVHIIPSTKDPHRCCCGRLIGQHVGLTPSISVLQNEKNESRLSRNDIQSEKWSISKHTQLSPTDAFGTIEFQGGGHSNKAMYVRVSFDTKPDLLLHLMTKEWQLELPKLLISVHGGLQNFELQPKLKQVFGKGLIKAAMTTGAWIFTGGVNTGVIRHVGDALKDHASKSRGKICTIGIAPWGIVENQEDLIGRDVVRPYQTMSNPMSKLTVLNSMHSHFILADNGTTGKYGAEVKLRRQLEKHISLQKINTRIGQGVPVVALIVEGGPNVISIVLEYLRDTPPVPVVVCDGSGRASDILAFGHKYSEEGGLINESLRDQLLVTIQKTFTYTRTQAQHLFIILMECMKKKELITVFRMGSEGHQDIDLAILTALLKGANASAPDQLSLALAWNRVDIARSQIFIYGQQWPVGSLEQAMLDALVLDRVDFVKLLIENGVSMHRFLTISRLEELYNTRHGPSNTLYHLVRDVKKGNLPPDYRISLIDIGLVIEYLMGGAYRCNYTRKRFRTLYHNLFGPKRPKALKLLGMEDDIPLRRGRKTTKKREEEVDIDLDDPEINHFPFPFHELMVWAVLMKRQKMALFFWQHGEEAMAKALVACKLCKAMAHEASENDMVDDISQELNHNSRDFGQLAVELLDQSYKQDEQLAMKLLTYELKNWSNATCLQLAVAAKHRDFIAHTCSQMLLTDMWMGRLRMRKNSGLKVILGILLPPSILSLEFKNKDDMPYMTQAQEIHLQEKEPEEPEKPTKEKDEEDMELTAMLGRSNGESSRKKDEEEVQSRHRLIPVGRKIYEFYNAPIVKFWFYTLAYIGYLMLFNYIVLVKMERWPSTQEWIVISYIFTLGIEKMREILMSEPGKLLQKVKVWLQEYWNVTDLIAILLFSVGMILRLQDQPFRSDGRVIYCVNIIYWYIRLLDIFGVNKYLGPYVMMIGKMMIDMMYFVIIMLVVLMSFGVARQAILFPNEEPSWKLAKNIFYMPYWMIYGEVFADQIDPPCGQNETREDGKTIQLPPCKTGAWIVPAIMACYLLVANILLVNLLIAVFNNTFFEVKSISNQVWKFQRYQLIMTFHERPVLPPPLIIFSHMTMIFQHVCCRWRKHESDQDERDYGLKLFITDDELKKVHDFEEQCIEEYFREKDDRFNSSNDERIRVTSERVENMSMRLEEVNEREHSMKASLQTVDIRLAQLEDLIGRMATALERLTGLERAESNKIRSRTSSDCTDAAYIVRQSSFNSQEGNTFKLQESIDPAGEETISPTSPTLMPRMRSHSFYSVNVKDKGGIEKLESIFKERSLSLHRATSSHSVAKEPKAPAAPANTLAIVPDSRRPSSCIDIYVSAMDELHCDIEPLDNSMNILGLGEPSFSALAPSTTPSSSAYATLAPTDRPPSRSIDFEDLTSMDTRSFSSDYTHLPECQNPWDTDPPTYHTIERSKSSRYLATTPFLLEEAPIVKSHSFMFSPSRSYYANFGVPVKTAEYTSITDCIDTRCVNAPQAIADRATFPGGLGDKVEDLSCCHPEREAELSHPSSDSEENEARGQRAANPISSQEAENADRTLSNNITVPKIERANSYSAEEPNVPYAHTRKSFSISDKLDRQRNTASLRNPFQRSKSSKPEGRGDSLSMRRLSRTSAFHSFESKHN
pIC50: −log10 of the molar value.
OBSERVED PROPERTY: pIC50

[
  {
    "COMPOUND": "Cc1ncsc1COc1ccc2oc(C)c(C3(C#N)CC3)c2c1 [Cpd 011]",
    "SUBJECT OF TEST": "mouse TRPM3α2 (mTRPM3) ion channel (Mus musculus, UniProt J9SQF3)",
    "OBSERVED PROPERTY": "pIC50",
    "OBSERVED VALUE": "> 6.00"
  },
  {
    "COMPOUND": "Cc1oc2ccc(OCc3cccnc3C(F)(F)F)cc2c1C1(CN)CC1 [Cpd 016]",
    "SUBJECT OF TEST": "mouse TRPM3α2 (mTRPM3) ion channel (Mus musculus, UniProt J9SQF3)",
    "OBSERVED PROPERTY": "pIC50",
    "OBSERVED VALUE": "4.70 to 6.00"
  },
  {
    "COMPOUND": "Cc1oc2ccc(OCc3c(F)cccc3Cl)cc2c1-c1nn[nH]n1 [Cpd 023]",
    "SUBJECT OF TEST": "mouse TRPM3α2 (mTRPM3) ion channel (Mus musculus, UniProt J9SQF3)",
    "OBSERVED PROPERTY": "pIC50",
    "OBSERVED VALUE": "4.70 to 6.00"
  }
]

pIC50 recorded for this compound, Cc1ncsc1COc1ccc2oc(C)c(C3(NC(=O)CO)CC3)c2c1 [Cpd 017] , is 4.70 to 6.00

pIC50 recorded for this compound, Cc1oc2ccc(OCc3cccnc3C(F)(F)F)cc2c1C1(NS(=O)(=O)CC2CC2)CC1 [Cpd 013] , is > 6.00

pIC50 recorded for this compound, Cc1oc2ccc(OCc3cccnc3C(F)(F)F)cc2c1C1(N)CC1 [Cpd 014] , is 4.70 to 6.00

pIC50 recorded for this compound, Cc1oc2ccc(OCc3ccccc3)cc2c1-c1nccc(CO)n1 [Cpd 032] , is < 4.70

pIC50 recorded for this compound, Cc1oc2ccc(OCc3ccccc3)cc2c1-c1cncc(CO)n1 [Cpd 031] , is < 4.70

pIC50 recorded for this compound, Cc1oc2ccc(OCc3cccnc3C(F)(F)F)cc2c1C1(CO)CC1 [Cpd 001] , is > 6.00
